Target: human RXFP1 (Homo sapiens, UniProt Q9HBX9)
Sequence (Q9HBX9 1-757): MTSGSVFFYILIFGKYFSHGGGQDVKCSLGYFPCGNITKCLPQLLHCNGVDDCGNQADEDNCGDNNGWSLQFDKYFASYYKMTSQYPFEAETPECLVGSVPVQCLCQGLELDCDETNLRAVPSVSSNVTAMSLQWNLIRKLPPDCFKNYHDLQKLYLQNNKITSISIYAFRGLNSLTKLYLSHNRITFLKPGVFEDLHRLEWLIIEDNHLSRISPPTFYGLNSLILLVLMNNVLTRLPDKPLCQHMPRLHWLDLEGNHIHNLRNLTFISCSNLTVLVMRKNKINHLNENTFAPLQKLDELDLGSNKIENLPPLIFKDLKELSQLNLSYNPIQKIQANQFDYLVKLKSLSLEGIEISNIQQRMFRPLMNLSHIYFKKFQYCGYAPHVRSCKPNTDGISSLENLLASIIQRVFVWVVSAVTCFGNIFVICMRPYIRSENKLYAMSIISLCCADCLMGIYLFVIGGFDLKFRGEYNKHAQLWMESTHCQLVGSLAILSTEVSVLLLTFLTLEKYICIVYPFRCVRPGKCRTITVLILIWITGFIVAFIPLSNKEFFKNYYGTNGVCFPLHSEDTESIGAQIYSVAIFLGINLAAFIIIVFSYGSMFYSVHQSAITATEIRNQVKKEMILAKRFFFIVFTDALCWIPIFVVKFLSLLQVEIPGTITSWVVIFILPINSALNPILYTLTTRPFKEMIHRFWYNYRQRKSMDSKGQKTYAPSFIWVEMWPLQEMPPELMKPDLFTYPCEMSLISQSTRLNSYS
Assay: RXFP1 Hu cAMP (Test A)
Type: cell-based
Set-up: expressed in transfected cells; host or cells: Jump-In T-REx CHO-K1 cells (ThermoFisher), induced with 10 ng/ml doxycycline for 24 h
Conditions: RXFP1 Hu cAMP
MEASURED_ENDPOINT: Test A Sinf (%)

- COMPOUND: "COc1cc(F)c(O[C@H]2CC[C@](C)(CC(=O)O)CC2)cc1C(=O)N[C@@H]1[C@H]2CC[C@H](C2)[C@@H]1C(=O)NCC1(C)CCC1 [Example 477]"
  UNIT_NAME: "%"
  Test A Sinf: 84
- COMPOUND: "COc1cc(F)c(-c2ccc([C@@H](C(=O)O)N(C)C)cc2)cc1C(=O)N[C@@H]1[C@H]2CC[C@H](C2)[C@@H]1C(=O)Nc1cccc(S(=O)(=O)C(F)(F)F)c1 (racemic) [Example 295]"
  UNIT_NAME: "%"
  Test A Sinf: 100
- COMPOUND: "CC1(CNC(=O)[C@H]2[C@@H]3CC[C@@H](C3)[C@H]2NC(=O)c2cc(O[C@H]3CC[C@@](C)(C(=O)O)CC3)c(F)cc2OCF)CCC1 [Example 4]"
  UNIT_NAME: "%"
  Test A Sinf: 103
- COMPOUND: "COc1cc(F)c(O[C@H]2CC[C@@H](C(=O)O)CC2)cc1C(=O)NC1=C(C(=O)Nc2ccc(F)c(C(F)(F)F)c2)CCC1 [Example 214]"
  UNIT_NAME: "%"
  Test A Sinf: 115
- COMPOUND: "COc1cc(F)c(O[C@H]2CC[C@@](C)(C(=O)O)CC2)cc1C(=O)N[C@@H]1[C@H]2CC[C@H](C2)[C@@H]1C(=O)NCC1(F)CCOCC1 [Example 146]"
  UNIT_NAME: "%"
  Test A Sinf: 87
- COMPOUND: "COc1cc(C#N)c(O[C@H]2CC[C@@](C)(C(=O)O)CC2)cc1C(=O)N[C@@H]1[C@H]2CC[C@H](C2)[C@@H]1C(=O)N[C@H]1CCCC[C@H]1CC(F)(F)F [Example 134]"
  UNIT_NAME: "%"
  Test A Sinf: 104
- COMPOUND: "COc1cc(F)c(O[C@H]2C[C@@H](CC(=O)O)C2)cc1C(=O)N[C@@H]1[C@@H]2CC[C@@H](C2)[C@@H]1C(=O)Nc1cccc(S(=O)(=O)C(F)(F)F)c1 [Example 475]"
  UNIT_NAME: "%"
  Test A Sinf: 100
- COMPOUND: "COc1cc(F)c(O[C@H]2CC[C@@](C)(C(=O)O)CC2)cc1C(=O)N[C@@H]1CCCCC[C@@H]1C(=O)Nc1cccc(S(=O)(=O)C(F)(F)F)c1 (racemic) [Example 354]"
  UNIT_NAME: "%"
  Test A Sinf: 95
- COMPOUND: "COc1cc(F)c(O[C@H]2CC[C@@](C)(C(=O)O)CC2)cc1C(=O)N[C@@H]1CC[C@@H]1C(=O)Nc1ccc(F)c(S(F)(F)(F)(F)F)c1 (racemic) [Example 347]"
  UNIT_NAME: "%"
  Test A Sinf: 115
- COMPOUND: "COc1cc(C#N)c(O[C@H]2CC[C@@](C)(C(=O)O)CC2)cc1C(=O)N[C@@H]1[C@H]2CC[C@H](C2)[C@@H]1C(=O)NC[C@@H](F)c1ccccc1 [Example 131]"
  UNIT_NAME: "%"
  Test A Sinf: 99
- COMPOUND: "COc1cc(F)c(O[C@H]2CC[C@@H](C(=O)O)CC2)cc1C(=O)N[C@@H]1[C@H]2CC[C@H](C2)[C@@H]1C(=O)Nc1ccc(C(F)(F)F)cn1 [Example 13]"
  UNIT_NAME: "%"
  Test A Sinf: 115
- COMPOUND: "COc1cc(F)c(-c2cccc(C[C@@H](C(=O)O)N(C)C)c2)cc1C(=O)N[C@@H]1[C@H]2CC[C@H](C2)[C@@H]1C(=O)Nc1cccc(S(=O)(=O)C(F)(F)F)c1 (racemic) [Example 293]"
  UNIT_NAME: "%"
  Test A Sinf: 118
- COMPOUND: "COc1cc(F)c(O[C@H]2CC[C@@H](C(=O)O)CC2)cc1C(=O)N[C@@H]1[C@H]2CC[C@H](C2)[C@@H]1C(=O)Nc1cccc(S(F)(F)(F)(F)F)c1 [Example 182]"
  UNIT_NAME: "%"
  Test A Sinf: 107
- COMPOUND: "COc1cc(F)c(O[C@H]2CC[C@@H](C(=O)O)CC2)cc1C(=O)N[C@@H]1CCC[C@@H]1C(=O)Nc1cccc(S(=O)(=O)C(F)(F)F)c1 [Example 490]"
  UNIT_NAME: "%"
  Test A Sinf: 127
- COMPOUND: "CCC(CC)NC(=O)c1ccc(C)cc1NC(=O)c1cc(O[C@H]2CC[C@@](C)(C(=O)O)CC2)c(C#N)cc1OC [Example 168]"
  UNIT_NAME: "%"
  Test A Sinf: 121
- COMPOUND: "COc1cc(F)c(O[C@H]2CC[C@@](C)(C(=O)O)CC2)cc1C(=O)N[C@@H]1[C@H]2CC[C@H](C2)[C@@H]1C(=O)NCC1(C)CCCCC1 [Example 44]"
  UNIT_NAME: "%"
  Test A Sinf: 107

----------
molecular target: human RXFP1 (Homo sapiens, UniProt Q9HBX9); experiment: RXFP1 Hu cAMP (Test A); format: cell-based; set-up: expressed in transfected cells; host or cells: Jump-In T-REx CHO-K1 cells (ThermoFisher), induced with 10 ng/ml doxycycline for 24 h; conditions: RXFP1 Hu cAMP
MEASURED_ENDPOINT: Test A Sinf (%)

- COMPOUND: "COc1cc(F)c(-c2ccc(C(=O)O)cc2)cc1C(=O)N[C@H]1[C@@H](C(=O)Nc2cccc(S(=O)(=O)C(F)(F)F)c2)[C@@H]2C=C[C@H]1C2 (racemic) [Example 224]"
  EXPERIMENTAL_RESULT: 92
- COMPOUND: "COc1cc(F)c(O[C@H]2CC[C@@H](C(=O)O)CC2)cc1C(=O)N[C@@H]1[C@@H]2C[C@@H]([C@H]3OCO[C@@H]23)[C@@H]1C(=O)Nc1cccc(S(=O)(=O)C(F)(F)F)c1"
  EXPERIMENTAL_RESULT: 100
- COMPOUND: "COc1cc(F)c(O[C@H]2CC[C@@](C)(C(=O)O)CC2)cc1C(=O)NC1C2CCC(C2)C1C(=O)Nc1cccc(S(=O)(=O)C(F)(F)F)c1 (single isomer, unassigned)"
  EXPERIMENTAL_RESULT: 105
- COMPOUND: "COc1cc(F)c(O[C@H]2CC[C@@](C)(C(=O)O)CC2)cc1C(=O)N[C@@H]1[C@H]2CC[C@H](C2)[C@@H]1C(=O)NCC1(CF)CC1"
  EXPERIMENTAL_RESULT: 96
- COMPOUND: "COc1cc(F)c(O[C@H]2CC[C@@](C)(C(=O)O)CC2)cc1C(=O)Nc1ccccc1C(=O)NCC1(C)CCC1"
  EXPERIMENTAL_RESULT: 130
- COMPOUND: "COc1cc(F)c(OCCCC(=O)O)cc1C(=O)N[C@H]1[C@@H](C(=O)Nc2cccc(S(=O)(=O)C(F)(F)F)c2)[C@@H]2C=C[C@H]1C2 (racemic)"
  EXPERIMENTAL_RESULT: 129
- COMPOUND: "COc1cc(C#N)c(O[C@H]2CC[C@@](C)(C(=O)O)CC2)cc1C(=O)Nc1cc(C)ccc1C(=O)N[C@H]1CC[C@H](C)CC1"
  EXPERIMENTAL_RESULT: 111
- COMPOUND: "COc1cc(F)c(-c2ccc(C[C@@H](N)C(=O)O)cc2)cc1C(=O)N[C@@H]1[C@H]2CC[C@H](C2)[C@@H]1C(=O)Nc1cccc(S(=O)(=O)C(F)(F)F)c1"
  EXPERIMENTAL_RESULT: 106
- COMPOUND: "COc1cc(F)c(OCc2ccc(C(=O)O)cc2)cc1C(=O)N[C@@H]1[C@H]2CC[C@H](C2)[C@@H]1C(=O)Nc1cccc(S(=O)(=O)C(F)(F)F)c1"
  EXPERIMENTAL_RESULT: 112
- COMPOUND: "COc1cc(F)c(-c2ccc(/C=C/C(=O)O)nc2)cc1C(=O)N[C@@H]1[C@H]2CC[C@H](C2)[C@@H]1C(=O)Nc1cccc(S(=O)(=O)C(F)(F)F)c1"
  EXPERIMENTAL_RESULT: 108
- COMPOUND: "COc1cc(F)c(-c2ccc(C(=O)O)cc2)cc1C(=O)N[C@H]1[C@@H](C(=O)Nc2ccc(F)c(S(=O)(=O)C(F)(F)F)c2)[C@@H]2C=C[C@H]1C2 (racemic)"
  EXPERIMENTAL_RESULT: 98

// provenance: patent US11667602B2
